Target: T1, MC1-R of B-16 mouse melanoma cells (mouse, UniProt Q01727 1-315)
T1 construct: whole, on cells; also called B16-F10 (MC1-R)
T1 sequence (Q01727 whole entry): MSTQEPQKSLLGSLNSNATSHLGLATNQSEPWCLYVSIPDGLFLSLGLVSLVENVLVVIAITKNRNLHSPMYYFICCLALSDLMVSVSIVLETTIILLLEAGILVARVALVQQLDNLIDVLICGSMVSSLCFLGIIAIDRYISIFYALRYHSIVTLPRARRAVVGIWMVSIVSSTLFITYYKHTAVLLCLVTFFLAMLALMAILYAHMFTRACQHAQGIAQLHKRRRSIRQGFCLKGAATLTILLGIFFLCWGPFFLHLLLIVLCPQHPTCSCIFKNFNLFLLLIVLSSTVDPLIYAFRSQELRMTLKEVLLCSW
Test: radioligand competition, [I125]-NDP-α-MSH, B-16 membranes
MEASURED_PARAMETER: Ki (pM)
Numbers only, in pM.

**Query** Return reported Ki. Input binder: XDHFRXK (N-terminal acetyl; Nle at 1 (X); D-Phe at 4; Nal 1 at 6 (X); cyclo(Asp 2 to Lys 7); C-terminal dimethylamide -N(CH3)2, also called Compound No. 37) [Ac-Nle-cyclo(-Asp-His-D-Phe-Arg-Nal 1-Lys)-N(CH3)2]
**Result** 390
